protocol description: Half life in mouse at 5 mg/kg, iv
Assay type: ADME, organism-based
Parameters: dose 5 mg/kg, route intravenous
test settings: in vivo
readout: half-life (h)
Give bare numbers, in h.

Input line: Provide only the value of recorded half-life for `C[C@H](c1ccc(Cl)cc1)N1C(=O)c2cc(I)ccc2N(CCCCC(=O)O)C(=O)[C@@H]1c1ccc(Cl)cc1`
Output line: 3.1

====

protocol description: in vitro
test settings: human, Caco-2
readout: Papp A→B (×10⁻⁶ cm/s)
One number for each entry, in ×10⁻⁶ cm/s.

# annotated cases, reported Papp A→B shown
C[C@H](c1ccc(Cl)cc1)N1C(=O)c2cc(I)ccc2N(CCCCC(=O)O)C(=O)[C@@H]1c1ccc(Cl)cc1 = 7.34
CC#Cc1ccc2c(c1)C(=O)N([C@H](C)c1ccc(Cl)cc1)[C@@H](c1ccc(Cl)cc1)C(=O)N2CCCCC(=O)O = 19.9

Input line: State its Papp A→B: `C#Cc1ccc2c(c1)C(=O)N([C@H](C)c1ccc(Cl)cc1)[C@@H](c1ccc(Cl)cc1)C(=O)N2CCCCC(=O)O`
Output line: 20.9

====

protocol description: Cmax in mouse at 40 mg/kg, po
Assay type: ADME, organism-based
Set-up: dose 40 mg/kg, route oral
test settings: in vivo
readout: Cmax (µM)
Give bare numbers, in µM.

Input line: Identify Cmax associated with the compound `C[C@H](c1ccc(Cl)cc1)N1C(=O)c2cc(I)ccc2N(CCCCC(=O)O)C(=O)[C@@H]1c1ccc(Cl)cc1`
Output line: 6.3

====

protocol description: Half life in mouse at 40 mg/kg, po
Assay type: ADME, organism-based
Design: dose 40 mg/kg, route oral
test settings: in vivo
readout: half-life (h)
One number for each entry, in h.

Input line: Given the compound `C[C@H](c1ccc(Cl)cc1)N1C(=O)c2cc(I)ccc2N(CCCCC(=O)O)C(=O)[C@@H]1c1ccc(Cl)cc1` , write its reported half-life.
Output line: 2.5

====

protocol description: Volume of distribution in mouse at 5 mg/kg, iv
Format: ADME, organism-based
Parameters: dose 5 mg/kg, route intravenous
test settings: in vivo, read-out: Vdss
readout: Vd (L/kg)
Answers are plain numbers, in L/kg.

Input line: Annotate the molecule `C[C@H](c1ccc(Cl)cc1)N1C(=O)c2cc(I)ccc2N(CCCCC(=O)O)C(=O)[C@@H]1c1ccc(Cl)cc1` with its measured Vd.
Output line: 3

====

protocol description: Bioavailability in mouse
Format: ADME, organism-based
test settings: in vivo
readout: bioavailability (%)
Answers are plain numbers, in %.

Input line: Output bioavailability of `C[C@H](c1ccc(Cl)cc1)N1C(=O)c2cc(I)ccc2N(CCCCC(=O)O)C(=O)[C@@H]1c1ccc(Cl)cc1`
Output line: 100

====

protocol description: in vitro
test settings: human, Caco-2
Assignment: determine reported Papp B→A for the given compounds.
Give bare numbers, in ×10⁻⁶ cm/s.

Consider the worked cases shown below.
C#Cc1ccc2c(c1)C(=O)N([C@H](C)c1ccc(Cl)cc1)[C@@H](c1ccc(Cl)cc1)C(=O)N2CCCCC(=O)O = 16.1
CC#Cc1ccc2c(c1)C(=O)N([C@H](C)c1ccc(Cl)cc1)[C@@H](c1ccc(Cl)cc1)C(=O)N2CCCCC(=O)O = 9.1

Input line: Provide Papp B→A value for the following compound: `C[C@H](c1ccc(Cl)cc1)N1C(=O)c2cc(I)ccc2N(CCCCC(=O)O)C(=O)[C@@H]1c1ccc(Cl)cc1`
Output line: 13
